Measurement target: human TLR7 (Homo sapiens, UniProt Q9NYK1)
Sequence (Q9NYK1 27-1049): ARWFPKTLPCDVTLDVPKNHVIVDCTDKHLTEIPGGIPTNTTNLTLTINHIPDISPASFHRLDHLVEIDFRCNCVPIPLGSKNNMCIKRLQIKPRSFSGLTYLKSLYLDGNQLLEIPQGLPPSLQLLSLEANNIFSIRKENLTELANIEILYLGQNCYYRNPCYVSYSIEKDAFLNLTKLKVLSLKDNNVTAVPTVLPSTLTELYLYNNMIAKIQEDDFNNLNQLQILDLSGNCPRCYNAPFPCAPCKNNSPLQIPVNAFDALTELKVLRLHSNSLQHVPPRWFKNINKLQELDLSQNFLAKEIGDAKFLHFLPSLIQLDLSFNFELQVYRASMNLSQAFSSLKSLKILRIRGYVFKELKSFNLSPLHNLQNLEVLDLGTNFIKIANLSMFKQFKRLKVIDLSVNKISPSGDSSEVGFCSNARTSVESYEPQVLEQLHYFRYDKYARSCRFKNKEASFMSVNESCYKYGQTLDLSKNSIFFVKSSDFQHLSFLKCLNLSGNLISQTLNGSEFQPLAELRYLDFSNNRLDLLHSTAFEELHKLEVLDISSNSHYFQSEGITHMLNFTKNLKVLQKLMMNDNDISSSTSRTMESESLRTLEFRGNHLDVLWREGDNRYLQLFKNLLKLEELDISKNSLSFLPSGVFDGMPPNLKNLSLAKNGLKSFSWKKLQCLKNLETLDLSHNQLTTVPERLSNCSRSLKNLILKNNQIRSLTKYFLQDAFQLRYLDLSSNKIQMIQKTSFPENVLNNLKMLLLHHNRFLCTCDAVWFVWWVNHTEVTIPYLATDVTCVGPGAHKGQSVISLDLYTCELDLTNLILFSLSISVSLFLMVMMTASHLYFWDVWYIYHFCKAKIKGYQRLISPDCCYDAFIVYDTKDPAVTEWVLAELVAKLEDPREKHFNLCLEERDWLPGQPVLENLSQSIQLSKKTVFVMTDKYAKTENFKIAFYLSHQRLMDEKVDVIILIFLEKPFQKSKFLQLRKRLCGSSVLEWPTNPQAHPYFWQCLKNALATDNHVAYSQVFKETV
Protocol description: TLR7 inhibition reporter assay (HEK-Blue SEAP reporter, gardiquimod stimulation)
Condition description: HEK-Blue cells overexpressing human TLR7, SEAP reporter, gardiquimod 7.5 μM, 22 hour incubation
pIC50: −log10 of the molar value.
Observation type: pIC50

Would you please look over these solved cases?
[
  {
    "Test smiles": "CNC(=O)CN1CCC(c2ccc3[nH]c(-c4cn(C)c(=O)c(C)c4C)c(C(C)C)c3c2)CC1",
    "Measurement target": "human TLR7 (Homo sapiens, UniProt Q9NYK1)",
    "Recorded number": 8.28
  },
  {
    "Test smiles": "Cc1cc(-c2[nH]c3ccc(C4CCN(Cc5cnn(C)c5)CC4)cc3c2C(C)C)cn(C)c1=O",
    "Measurement target": "human TLR7 (Homo sapiens, UniProt Q9NYK1)",
    "Recorded number": 8.52
  },
  {
    "Test smiles": "CC(C)CN1CCC(c2ccc3[nH]c(-c4cc(-c5ccccc5)c(=O)n(C)c4)c(C(C)C)c3c2)CC1",
    "Measurement target": "human TLR7 (Homo sapiens, UniProt Q9NYK1)",
    "Recorded number": 7.77
  }
]

P: Cc1cc(-c2cc(-c3[nH]c4ccc(C5CCN(C(C)C)CC5)cc4c3C(C)C)cn(C)c2=O)cnc1F
Q: CCn1cc(-c2[nH]c3ccc(C4CCN(C5COC5)CC4)cc3c2C(C)C)c(C)c(C)c1=O
R: Cc1c(-c2[nH]c3ccc(C4CCN(C(=O)CN(C)C)CC4)cc3c2C(C)C)nn(C)c(=O)c1C
S: Cc1c(-c2[nH]c3ccc(C4CCN(C5COC5)CC4)cc3c2C(C)C)cn(C)c(=O)c1Cl
QUERY: List these items ordered by pIC50, big to small. Please, when replying, give the labels in the order that was requested.
RESULT: S, P, Q, R
(S: 8.25, P: 7.74, Q: 7.46, R: 6.29)

1: Cc1cc(-c2[nH]c3ccc(C4CCN(CCC(C)(C)O)CC4)cc3c2C(C)C)c(C)n(C)c1=O
2: Cc1cc(-c2[nH]c3ccc(C4CCN(C(C)(C)C(=O)O)CC4)cc3c2C(C)C)cn(C)c1=O
QUERY: Given the listed items, does 1 or 2 have the lesser reported pIC50? Response format: the label of the selected entry.
RESULT: 2

A: Cc1cc(-c2[nH]c3ccc(C4CCN(C5CCOCC5)CC4)cc3c2C(C)C)c(C)n(C)c1=O
B: CC(C)c1c(-c2cc(-c3cncnc3)c(=O)n(C)c2)[nH]c2ccc(C3CCN(C)CC3)cc12
C: Cc1cc(-c2[nH]c3ccc(C4CCN(C(=O)C5(N)CC5)CC4)cc3c2C(C)C)cn(C)c1=O
D: Cc1c(-c2[nH]c3ccc(C4CCN(CC(=O)N(C)C)CC4)cc3c2C(C)C)cc(C#N)c(=O)n1C
E: CNC(=O)CN1CCC(c2ccc3[nH]c(-c4cc(OC)c(=O)n(C)c4)c(C(C)C)c3c2)CC1
QUERY: List these items ordered by pIC50, big to small. Please, when replying, give the labels in the order that was requested.
RESULT: B, E, C, A, D

I: CNC(=O)CN1CCC(c2ccc3[nH]c(-c4cc(C)c(=O)n(C)n4)c(C(C)C)c3c2)CC1
II: COCc1cc(-c2[nH]c3ccc(C4CCN(C5CCOCC5)CC4)cc3c2C(C)C)cn(C)c1=O
QUERY: Between I and II , whose measured pIC50 reads higher? Response format: the label of the selected entry.
RESULT: II
(II: 7.95, I: 7.73)

I: Cc1cc(-c2[nH]c3ccc(C4CCN(C(C)C)CC4)cc3c2C(C)C)cn(C)c1=O
II: Cc1cc(-c2[nH]c3ccc(C4CCN(C5COC5)CC4)cc3c2C(C)C)nn(C)c1=O
QUERY: Between I and II , whose measured pIC50 reads higher? Response format: the label of the selected entry.
RESULT: I
